FYI, the data here is from ChEMBL document CHEMBL3727350.

Experimental system: Transient receptor potential cation channel subfamily M member 7 (Mus musculus) (UniProt Q923J1)
Sequence (Q923J1 whole entry): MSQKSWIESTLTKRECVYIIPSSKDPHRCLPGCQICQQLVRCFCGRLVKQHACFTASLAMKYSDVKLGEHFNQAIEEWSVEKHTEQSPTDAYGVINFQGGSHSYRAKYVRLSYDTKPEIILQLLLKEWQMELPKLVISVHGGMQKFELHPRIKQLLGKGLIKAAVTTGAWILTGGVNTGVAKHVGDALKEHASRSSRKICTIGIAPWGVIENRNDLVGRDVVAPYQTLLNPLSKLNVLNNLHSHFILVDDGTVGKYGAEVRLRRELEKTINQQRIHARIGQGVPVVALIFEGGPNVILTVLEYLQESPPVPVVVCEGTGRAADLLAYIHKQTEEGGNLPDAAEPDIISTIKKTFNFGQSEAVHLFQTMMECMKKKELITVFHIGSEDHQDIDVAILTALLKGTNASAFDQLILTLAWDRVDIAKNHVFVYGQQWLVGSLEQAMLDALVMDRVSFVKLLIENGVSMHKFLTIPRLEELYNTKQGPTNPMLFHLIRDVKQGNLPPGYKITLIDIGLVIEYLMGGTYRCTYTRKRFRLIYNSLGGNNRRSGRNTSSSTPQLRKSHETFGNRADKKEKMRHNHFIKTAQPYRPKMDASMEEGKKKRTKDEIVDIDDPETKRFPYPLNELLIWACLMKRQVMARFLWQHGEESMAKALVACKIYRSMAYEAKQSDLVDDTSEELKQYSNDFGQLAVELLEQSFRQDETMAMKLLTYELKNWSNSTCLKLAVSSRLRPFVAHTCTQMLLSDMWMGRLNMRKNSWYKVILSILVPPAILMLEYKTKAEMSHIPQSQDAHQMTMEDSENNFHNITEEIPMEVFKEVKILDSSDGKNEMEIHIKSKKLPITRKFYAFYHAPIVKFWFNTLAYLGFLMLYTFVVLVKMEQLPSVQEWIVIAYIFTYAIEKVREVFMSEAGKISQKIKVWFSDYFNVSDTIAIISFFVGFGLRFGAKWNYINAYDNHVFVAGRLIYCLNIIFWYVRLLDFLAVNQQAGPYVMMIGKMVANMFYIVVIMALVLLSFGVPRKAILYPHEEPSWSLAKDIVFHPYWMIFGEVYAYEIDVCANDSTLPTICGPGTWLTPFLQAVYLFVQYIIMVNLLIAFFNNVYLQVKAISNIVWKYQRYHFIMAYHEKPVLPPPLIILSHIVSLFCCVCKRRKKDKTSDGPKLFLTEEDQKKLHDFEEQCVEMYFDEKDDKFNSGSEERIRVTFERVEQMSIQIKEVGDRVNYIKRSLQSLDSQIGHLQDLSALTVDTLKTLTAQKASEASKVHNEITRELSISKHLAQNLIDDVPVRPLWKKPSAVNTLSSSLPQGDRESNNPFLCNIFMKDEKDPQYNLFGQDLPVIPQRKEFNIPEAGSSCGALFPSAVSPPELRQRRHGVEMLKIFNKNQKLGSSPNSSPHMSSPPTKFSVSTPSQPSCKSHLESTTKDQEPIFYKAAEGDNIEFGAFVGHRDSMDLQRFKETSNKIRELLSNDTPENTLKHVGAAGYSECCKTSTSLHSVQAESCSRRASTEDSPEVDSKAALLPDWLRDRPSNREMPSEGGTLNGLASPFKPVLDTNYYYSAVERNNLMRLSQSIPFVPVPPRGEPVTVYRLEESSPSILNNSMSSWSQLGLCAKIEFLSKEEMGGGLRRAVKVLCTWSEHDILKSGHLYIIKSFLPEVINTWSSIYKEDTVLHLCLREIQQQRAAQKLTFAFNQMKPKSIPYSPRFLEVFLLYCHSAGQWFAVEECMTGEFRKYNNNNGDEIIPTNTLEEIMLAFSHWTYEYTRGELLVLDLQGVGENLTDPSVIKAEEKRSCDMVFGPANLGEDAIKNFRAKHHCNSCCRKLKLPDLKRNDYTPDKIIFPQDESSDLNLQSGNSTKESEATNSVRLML
Procedure details: Inhibition of Tet-induced Flag-tagged mouse TRPM7 expressed in HEK293 cells assessed as reduction in channel currents at 0.3 to 30 uM by whole cell patch clamp assay
Assay type: cell-based
Active and inactive are the calls of the source. No cut-off for these calls is given here.
Measurement type: inhibition

Consider the worked cases shown below.
Molecule: Cc1c(Cc2ccc(Cl)c(Cl)c2)c(=O)oc2cc(O)ccc12
Measurement type: inhibition
Assay value: Active

Molecule: Cc1ccc2c(c1)CCCN2C(=O)c1sc2ccccc2c1Cl
Measurement type: inhibition
Assay value: Active

Molecule: COc1ccc(OC)c(SCc2nnc(-c3ccc([N+](=O)[O-])c(C)c3)o2)c1
Measurement type: inhibition
Assay value: Active

Molecule: COc1cc2c(cc1OC)C(c1sc3ccccc3c1Cl)=NCC2
Measurement type: inhibition
Assay value: Active

Molecule: Cc1ccc(-n2c(-c3ccc(Cl)c(C)c3)csc2=N)c(C)c1.Cl
Measurement type: inhibition
Assay value: Active

Lab note: next molecule to report on.
inhibition measured on O=C(Nc1ccc(F)cc1)C(Sc1ccc(Cl)cc1)c1ccccc1 (stereo unspecified) = Active

* * *

Experimental system: Transient receptor potential cation channel subfamily M member 7 (Mus musculus) (UniProt Q923J1)
Procedure details: Inhibition of Tet-induced Flag-tagged mouse TRPM7 expressed in HEK293 cells assessed as inhibition of channel-mediated cell death in presence of Mg2+ incubated for 24 to 48 hrs by propidium iodide uptake assay
Format: cell-based
Parameters: concentration or dose not given beside the values
Assay context: concentration not given here
Please enter Y where inhibition is greater than or equal to 50%, and N where it is lower.

Molecule: O=C(c1cccs1)N1CCCN(Cc2cccc3ccccc23)CC1
Classification: Y
//
Molecule: Cc1ccc(NC(=O)c2c(-c3ccccc3Cl)noc2C)cc1F
Classification: N
//
Molecule: CC(C)(C)OC(=O)N1CCN(c2ccc(NS(=O)(=O)c3ccc(Cl)cc3)cn2)CC1
Classification: N
//
Molecule: CCCCCCCCCc1c(O)c2ccccc2[nH]c1=O
Classification: Y

Prompt: Kindly determine if inhibition recorded for OC1(C(F)(F)F)CC(c2cccs2)=NO1 (centres undefined) is above or exactly 50%.
Completion: N

Prompt: Kindly determine if inhibition recorded for `Oc1c(Cl)cc(Cl)cc1/C=N/c1ccc(Cl)cn1` is above or exactly 50%.
Completion: N

Prompt: Kindly determine if inhibition recorded for `CC(C)(C)c1ccc(NC(=O)/C=C/C(=O)O)cc1` is above or exactly 50%.
Completion: N

Prompt: Kindly determine if inhibition recorded for `Cc1cc(C(=O)Nc2ccc(C(C)(C)C)cc2)nn1Cc1c(Cl)cccc1Cl` is above or exactly 50%.
Completion: Y

Prompt: Kindly determine if inhibition recorded for `O=S(=O)(NCc1cccs1)c1ccc(Sc2ncc(C(F)(F)F)cc2Cl)s1` is above or exactly 50%.
Completion: N

Prompt: Kindly determine if inhibition recorded for COc1cccc(/C=C2/C=C(C3CCCS3)OC2=O)c1OC (centres undefined) is above or exactly 50%.
Completion: N

* * *

Experimental system: Transient receptor potential cation channel subfamily M member 7 (Mus musculus)
Procedure details: Inhibition of Tet-induced Flag-tagged mouse TRPM7 expressed in HEK293 cells assessed as inhibition of channel-mediated cell death in presence of Mg2+ incubated for 24 to 48 hrs by propidium iodide uptake assay
Format: cell-based
Design: concentration or dose not given beside the values
Assay context: concentration not given here
Measurement type: inhibition (%)
Please reply with the bare figure in % and do not write the unit itself.

Consider the worked cases shown below.
Compound structure string: N=C(NC(=O)c1cccc(Cn2cc(C(F)(F)F)ccc2=O)c1)c1ccc(Cl)cc1
inhibition [%]: 40

Compound structure string: CCOC(=O)C(=CNc1csc(C)c1C(=O)OC)C(=O)OCC
inhibition [%]: 60

Compound structure string: COc1ccc(/C=N/NS(=O)(=O)c2ccc(Cl)cc2)cc1OC
inhibition [%]: 80

inhibition measured on `CC1(C)CC(=O)C=C(Sc2ccc(C#N)cc2[N+](=O)[O-])S1` = 50
